Compiled notes: published log10(Ki) values involving Mineralocorticoid receptor (Homo sapiens).
endpoint label: log10(Ki) (log10 of the value in nM)

>>> print(df.to_string())
                                   molecule  endpoint_label  test_result
0  COc1ccccc1C1CCN(c2[nH]c(=O)[nH]c(=O)c2Cc2ccccc2)CC1       log10(Ki)         2.47
1     O=C1COc2ccc(C(=O)N3CCCc4ccccc43)cc2N1       log10(Ki)         2.80
2  C[C@]12C=CC(=O)C=C1CC[C@@H]1[C@@H]2[C@@H](O)C[C@@]2(C)[C@H]1CC[C@]2(O)C(=O)CO       log10(Ki)         1.57
3  COC(=O)C[C@H]1COc2cc(F)ccc2N1C(=O)c1ccc2c(c1)NC(=O)CO2       log10(Ki)         1.80
4  COc1cccc2c1-c1ccc3c(c1C(c1cccc(OCSC)c1)O2)C(C)=CC(C)(C)N3 (stereo not given)       log10(Ki)         3.58
5      CC(C)(c1ccccc1)c1ccc(NS(C)(=O)=O)cc1       log10(Ki)         2.87
6  CC(=O)c1ccc(NC(=O)O[C@@H]2[C@@H](C)c3c(cc(F)c(-c4cccc5cc[nH]c45)c3F)NC2(C)C)cc1 (racemic)       log10(Ki)         3.05
7  NC(=O)C[C@H]1COc2cc(F)cc(F)c2N1C(=O)c1ccc2c(c1)NC(=O)CO2       log10(Ki)         2.00
8  CC1CCc2ccccc2N1C(=O)c1ccc2c(c1)NC(=O)CO2 (racemic)       log10(Ki)         2.90
9  CCn1cc(-c2ccc(C#N)cc2)c2ccc(NS(C)(=O)=O)cc21       log10(Ki)         3.25
